target: human GPBAR1 receptor (Homo sapiens, UniProt Q8TDU6); construct: expressed in transfected cells; test: functional cAMP assay in CHO-dhfr(minus) cells expressing human GPBAR1 receptors; format: cell-based; conditions: human EC50, functional cAMP assay, 30 min at 30° C.
Sequence (Q8TDU6 whole entry): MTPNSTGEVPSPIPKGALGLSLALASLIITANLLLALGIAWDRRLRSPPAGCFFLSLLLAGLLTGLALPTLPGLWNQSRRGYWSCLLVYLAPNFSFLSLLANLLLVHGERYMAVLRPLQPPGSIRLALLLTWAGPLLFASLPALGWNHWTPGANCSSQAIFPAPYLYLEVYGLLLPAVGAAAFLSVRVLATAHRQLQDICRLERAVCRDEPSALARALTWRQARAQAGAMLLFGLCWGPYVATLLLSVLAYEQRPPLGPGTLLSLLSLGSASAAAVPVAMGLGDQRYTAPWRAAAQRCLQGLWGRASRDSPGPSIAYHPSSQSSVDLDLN
Assay readout: EC50
I'd appreciate it if you included the unit after the number.

The following molecules have reported results that may help.
> print(dat)
                                   molecule  experimental.value
1  Cc1cc(Cl)ccc1C(C/C(=N\O)c1ccc(=O)n(C)c1)c1ccc(Br)cc1 (stereo not drawn)               38 nM
2  Cc1ccccc1C(CC(=NO)c1cc(Cl)ncc1F)c1ccc(Br)cc1 (racemic)               46 nM
3  Cc1cc(Cl)ccc1C(C/C(=N\O)c1ccc(=O)n(C)c1)c1ccc(C(=O)O)cc1 (stereo not drawn)             2300 nM

Ask | Give the value of EC50 reported for the following: Cn1cc(/C(CC(c2ccc(-c3ccc(C(=O)O)cc3)cc2)c2ccc(F)cc2F)=N/O)ccc1=O (stereo not drawn)
Reply | 138 nM

Ask | Respond only with EC50 recorded for Cc1cc(/C(CC(c2ccc(-c3ccc(C(=O)O)cc3)cc2)c2ccccc2C(F)(F)F)=N/O)ccn1 (stereo not drawn)
Reply | 20 nM

Ask | Read the entry Cc1cc(/C(C[C@H](c2ccc(C3CCC(C(=O)O)CC3)cc2)c2ccccc2C)=N/O)ccn1 (stereo partly drawn) and write its reported EC50.
Reply | 24 nM

Ask | Give the value of EC50 reported for the following: Cc1ccc(C(C/C(=N\O)c2ccc(=O)n(C)c2)c2ccc(-c3ccc(C(=O)O)cc3)cc2)c(F)c1 (stereo not drawn)
Reply | 995 nM

Ask | Look up and report measured EC50 for this entry: `Cc1cc(/C(C[C@H](c2ccc(N3CC4(CSC4)C3)cc2)c2ccccc2C)=N/O)ccn1`
Reply | 24 nM

Ask | Find the measured EC50 of Cc1ccccc1C(CC(=NO)c1ccncc1)c1ccc(N2CCCCC2)cc1 (racemic) and report it.
Reply | 34 nM

Ask | Read the entry Cc1ccccc1C(C/C(=N\O)c1ccncc1)c1ccc(-c2cncnc2)cc1 (single isomer, unassigned; (+)) [Example 35] and write its reported EC50.
Reply | 67 nM

Ask | Using known records, supply EC50 for CCN(CC)c1ccc(C(CC(=NO)c2ccncc2)c2ccccc2C)cc1 (racemic)
Reply | 156 nM

Ask | Tell me EC50 reported for ON=C(CC(c1ccccc1)c1ccccc1)c1cc(Cl)ncc1F (racemic)
Reply | 117 nM

Ask | Determine its reported EC50: Cc1cc(C(=O)O)ccc1-c1ccc(C(C/C(=N\O)c2ccc(=O)n(C)c2)c2ccc(Cl)cc2Cl)cc1 (single isomer, unassigned) [Example 478]
Reply | 375 nM

Ask | Kindly indicate its recorded EC50. Item: Cc1cc(C(CC(c2ccc(-c3ccc(C(=O)O)c(Cl)c3)cc2)c2ccccc2C)=NO)ccn1 (racemic)
Reply | 27 nM

Ask | Read the entry Cc1cc(C(CC(c2ccc(Br)cc2)c2ccccc2C)=NO)cc(F)n1 (racemic) and write its reported EC50.
Reply | 61 nM

----------
biological target: human GPBAR1 receptor (Homo sapiens, UniProt Q8TDU6); construct: expressed in transfected cells; experiment: functional cAMP assay in CHO-dhfr(minus) cells expressing human GPBAR1 receptors; format: cell-based; details: human EC50, functional cAMP assay, 30 min at 30° C.
Assay readout: pEC50
pEC50 here: minus log base 10 of the concentration, concentration in moles per litre.

Example cases with answers are listed next.
> print(dat)
                                   compound  experimental.value
1      O/N=C(\CC(c1ccccc1)c1ccccc1)c1ccncc1                7.28
2  Cc1ccc(-c2ccc(C(C/C(=N\O)c3ccncc3)c3ccccc3)cc2)cn1 (centres unmarked)                6.45
3  CS(=O)(=O)c1cccc(-c2cccc(C(C/C(=N\O)c3ccncc3)c3ccccc3)c2)c1 (centres unmarked)                6.31
4  Cc1ccccc1[C@H](C/C(=N\O)c1cc(F)ncc1Cl)c1ccc(-c2ccc(C(=O)O)cc2)cc1                7.92
5  Cc1cc(/C(C[C@H](c2ccc(C3=CCNCC3)cc2)c2ccccc2C)=N/O)ccn1                7.12
6  C=CCC(C/C(=N\O)c1ccc(=O)n(C)c1)c1ccc(Br)cc1 (centres unmarked)                6.43

Ask | // fetch pEC50 given entry COC(=O)c1ccc(-c2ccc(C(CC(=NO)c3ccnc(C)c3)c3ccccc3C)cc2)cc1Cl (racemic)
Reply | 6.34

Ask | For the compound `CNC(=O)c1ccc([C@@H](C/C(=N\O)c2ccnc(C)c2)c2ccccc2C)cc1` , give its measured pEC50 value.
Reply | 7.82

----------
pEC50 listing for selected molecules.
target: human GPBAR1 receptor (Homo sapiens, UniProt Q8TDU6); construct: expressed in transfected cells; test: functional cAMP assay in CHO-dhfr(minus) cells expressing human GPBAR1 receptors; format: cell-based; details: human EC50, functional cAMP assay, 30 min at 30° C.
// returns pEC50 (minus log10 of molar concentration), number only

These recorded examples may help you get a feel for the data.
> print(dat)
                                   molecule                               system.name  experimental.value
1  Cc1cc(Cl)ccc1C(C/C(=N\O)c1ccc(=O)n(C)c1)c1ccc(OC(C)C)c(F)c1 (stereo not shown)  human GPBAR1 receptor (Homo sapiens, UniProt Q8TDU6)                6.75
2  Cn1cc(/C(CC(c2ccc(Br)cc2)c2ccc(F)cc2Cl)=N/O)ccc1=O (stereo not shown)  human GPBAR1 receptor (Homo sapiens, UniProt Q8TDU6)                7.96
3  CCOC(=O)C1CCN(c2ccc([C@@H](C/C(=N\O)c3ccnc(C)c3)c3ccccc3C)cc2)CC1  human GPBAR1 receptor (Homo sapiens, UniProt Q8TDU6)                7.92
4  Cc1ccccc1C(C/C(=N\O)c1ccc(=O)n(C)c1)c1ccc(Br)cc1F (stereo not shown)  human GPBAR1 receptor (Homo sapiens, UniProt Q8TDU6)                7.72
5  Cn1cc(/C(CC(c2ccc(-c3ccc(CC(=O)O)cc3)cc2)c2ccc(Cl)cc2F)=N/O)ccc1=O (single isomer, unassigned) [Example 461]  human GPBAR1 receptor (Homo sapiens, UniProt Q8TDU6)                6.81
6  Cc1ccccc1C(C/C(=N\O)c1ccc(=O)n(C)c1)c1ccc(C(=O)NC(C)(C)CO)cc1 (stereo not shown)  human GPBAR1 receptor (Homo sapiens, UniProt Q8TDU6)                6.09

Attention now shifts to the item below.
Ask | Send back human GPBAR1 receptor (Homo sapiens, UniProt Q8TDU6) pEC50 of Cc1cnc(F)cc1C(CC(c1ccc(-c2ccc(C(=O)O)cc2)cc1)c1ccccc1C)=NO (racemic) only.
Reply | 7.06

----------
biological target: human GPBAR1 receptor (Homo sapiens); construct: expressed in transfected cells; experiment: functional cAMP assay in CHO-dhfr(minus) cells expressing human GPBAR1 receptors; format: cell-based; conditions: human EC50, functional cAMP assay, 30 min at 30° C.
// returns N unless EC50 is strictly below 0.1 µM, in which case Y

# example entries with known answers
Molecule	System name	Label value
Cc1cc(Cl)ccc1C(C/C(=N\O)c1ccc(=O)n(C)c1)c1ccc(-c2ccc(C(=O)NCC(=O)O)cc2)cc1 (single isomer, unassigned; (-)) [Example 255]	human GPBAR1 receptor (Homo sapiens)	Y
Cc1ccccc1C(C/C(=N\O)c1ccc(=O)n(C)c1)c1ccc(C(=O)NC[C@@H](C)O)cc1 (stereo partly shown)	human GPBAR1 receptor (Homo sapiens)	Y
Cc1ccccc1C(C/C(=N\O)c1ccc(=O)n(C)c1)c1ccc(OCC(=O)O)cc1F (stereo not shown)	human GPBAR1 receptor (Homo sapiens)	N
Cc1cc(/C(C[C@H](c2ccc(CC(=O)NCCO)cc2)c2ccccc2C)=N/O)ccn1	human GPBAR1 receptor (Homo sapiens)	Y

Ask | Does the reported EC50 of Cc1ccccc1C(CC(=NO)c1ccncc1)c1ccc(N2CCOCC2)cc1 (racemic) stay below 0.1 µM?
Reply | Y

Ask | Does the reported EC50 of Cc1cc(Cl)ccc1C(C/C(=N\O)c1ccc(=O)n(C)c1)c1ccc(OCCCC(=O)O)cc1 (stereo not shown) stay below 0.1 µM?
Reply | N

Ask | For this molecule, is EC50 lower than 0.1 µM? `Cc1cc(/C(C[C@H](c2ccc(N3CCC(O)CC3)cc2)c2ccccc2C)=N/O)ccn1`
Reply | Y

Ask | Threshold test, EC50 < 0.1 µM: CC(C)CC(C/C(=N\O)c1ccc(=O)n(C)c1)c1ccc(Br)cc1 (stereo not shown)
Reply | N

Ask | Does `Cc1ccccc1[C@H](C/C(=N\O)c1ccc(=O)n(C)c1)c1ccc(C2CCNCC2)cc1` have EC50 strictly under 0.1 µM?
Reply | N
